Molecular target: Rap guanine nucleotide exchange factor 4 (Homo sapiens)
Experiment: Confirmatory qHTS for agonist of cAMP-regulated guanine nucleotide exchange factor 4 (EPAC2) (AID 1645884);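 also: nucleotide exchange releases bodipy-GDP from Rap1 and this lowers its fluorescence; nearly all actives have a fitted effect of over 65% in size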
Details: EPAC2 GEF activity, Rap1B-BODIPY-GDP fluorescence; series mostly up to 154 µM
Records with an inconclusive call do not appear. Active and inactive are the calls of the source. Calls follow the shape of the dose curve; as a rule, active = well fitted activation curve with a large enough effect; inconclusive = small, poorly fitted or top-dose-only effect; inactive = no such curve, though single readings can be large or run the other way.
endpoint: activation

COc1cc(C2NC(=O)c3c(sc4c3CCN(C)C4)N2)cc(Br)c1OC(=O)c1ccc(C)cc1 (stereo not given)    inactive
CS/C(Nc1cc(Cl)ccc1Cl)=C(/C#N)C(=O)c1ccco1    inactive

---

Target: Glutathione peroxidase 1 (Homo sapiens) (UniProt P07203)
Sequence (P07203 whole entry, looked up): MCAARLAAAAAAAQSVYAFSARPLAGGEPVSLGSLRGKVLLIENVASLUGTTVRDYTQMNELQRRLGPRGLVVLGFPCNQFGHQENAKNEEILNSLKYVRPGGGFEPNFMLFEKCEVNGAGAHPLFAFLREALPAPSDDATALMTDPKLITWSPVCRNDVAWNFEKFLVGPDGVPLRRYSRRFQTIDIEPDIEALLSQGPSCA
Assay: Primary qHTS Assay for Inhibitors of Recombinant Selenoprotein Glutathione Peroxidase 1 (GPX1) (AID 1845191); also: nearly all actives have a fitted effect of over 65% in size
Conditions: recombinant GPX1, GR-coupled NADPH fluorescence, 15 min; series mostly up to 48.8 µM
Inconclusive results are not listed. Active and inactive are the calls of the source. The call rests on the fitted dose curve; in most records, active means well fitted inhibition curve with a large enough effect; inconclusive means small, poorly fitted or top-dose-only effect; inactive means flat fitted curve, though single readings scatter.
One label from this list, please: Y (active), N (inactive)

Q: Hi, do you know how "Fc1ccc(N2CCN(c3nc4ccccc4c4nc(-c5cccnc5)nn34)CC2)cc1" came out in this test?
A: N

Q: Hi, do you know how "CCCCCCCCCC(=O)OCCN1CCN(CCCN2c3ccccc3Sc3ccc(C(F)(F)F)cc32)CC1" came out in this test?
A: N

Q: Hi, do you know how "COc1ccccc1Nc1nc(-c2sc(NC(C)=O)nc2C)cs1" came out in this test?
A: Y

Q: Hi, do you know how "Nc1ccccc1NC(=O)CCCCCCC(=O)Nc1ccccc1" came out in this test?
A: N

Q: Hi, do you know how "CO[C@H]1C[C@@H]2CC[C@@H](C)[C@@](O)(O2)C(=O)C(=O)N2CCCC[C@H]2C(=O)O[C@H]([C@H](C)C[C@@H]2CC[C@@H](OCCO)[C@H](OC)C2)CC(=O)[C@H](C)/C=C(/C)[C@@H](O)[C@@H](OC)C(=O)[C@H](C)C[C@H](C)\C=C/C=C\C=C/1C" came out in this test?
A: N

Q: Hi, do you know how "Cc1cc(/C=C/C#N)cc(C)c1Nc1ccnc(Nc2ccc(C#N)cc2)n1" came out in this test?
A: N

Q: Hi, do you know how CCOC(=O)N[C@@H]1CC[C@@H]2[C@@H](C1)C[C@H]1C(=O)O[C@H](C)C1[C@H]2/C=C/c1ccc(-c2cccc(F)c2)cn1 (stereo partly drawn) came out in this test?
A: N

Q: Hi, do you know how O=C1O[C@H]2[C@H](OC(O)[C@@H]2O)[C@@H]1O (stereo partly drawn) came out in this test?
A: N

Q: Hi, do you know how "CCCCC/C=C/C/C=C/CCCCCCCC(=O)O" came out in this test?
A: N

Q: Hi, do you know how Oc1c(C(c2ccccc2)N2CCOCC2)sc2nc(-c3ccco3)nn12 (stereo not drawn) came out in this test?
A: N

Q: Hi, do you know how "CCCN1C[C@@H](NS(=O)(=O)N(CC)CC)C[C@@H]2Cc3c(O)cccc3C[C@H]21" came out in this test?
A: N

Q: Hi, do you know how CCCCCCCCCCCCCCCC(=O)OC1CCCn2c1nc(C)c(CCN1CCC(c3noc4cc(F)ccc34)CC1)c2=O (stereo not drawn) came out in this test?
A: N

Q: Hi, do you know how "O=[N+]([O-])c1ccc(/C=C/c2cccc(CO)n2)o1" came out in this test?
A: N

Q: Hi, do you know how "O=C(O[C@H]1C[N+]2(CCCOc3ccccc3)CCC1CC2)C(O)(c1cccs1)c1cccs1" came out in this test?
A: N

Q: Hi, do you know how "CC1(C)C[C@H]1C(=O)N/C(=C\CCCCSC[C@@H](N)C(=O)O)C(=O)O" came out in this test?
A: N

Q: Hi, do you know how "Cc1ccc2occ(-c3cc(-c4ccc(F)cc4)nc4c3COc3ccc(F)cc3-4)c(=O)c2c1" came out in this test?
A: N

Q: Hi, do you know how "Cc1c(C(=O)Nc2cccc(-c3nc4ccccc4s3)c2)oc2ccc(F)cc12" came out in this test?
A: N

Q: Hi, do you know how "COc1cc2c(c(OC)c1OC)-c1c(cc3c(c1OC)OCO3)C[C@H](C)[C@@](C)(O)C2" came out in this test?
A: N
